Protocol: concentration in blood of mice after subcutaneous administration
Format: in vivo, mice (ddY type, male)
Condition notes: mouse, sc, 20 mg/kg, 7.5 min
Reported metric: concentration at 0.125 h (ng/mL)
Just the number in ng/mL, nothing appended.

# get_value(readout='concentration at 0.125 h', item= CC(C)(ON=C(C(=O)NC1C(=O)N2C(C(=O)O)=C(CSc3nc(C(=O)O)c(-c4ccc(O)c(O)c4)s3)CSC12)c1csc(N)n1)C(=O)O (centres unmarked) [Ex. 50] ) 60500

# get_value(readout='concentration at 0.125 h', item= CC(C)(O/N=C(\C(=O)N[C@@H]1C(=O)N2C(C(=O)[O-])=C(C[n+]3ccccc3)CS[C@H]12)c1csc(N)n1)C(=O)O [ceftazidime, reference compound] ) 25400
